Reported IC50 by item:
System: Murine vascular smooth muscle cells (SMCs)
Assay: Smooth muscle cell migration assay (wounding assay), RAGE ligand CML-AGE
Type: cell-based
Details: Mus musculus; CML-AGE 10 μg/ml, 7 h; read-out: SMC migration Assay, IC50
Number only, in µM; omit the unit.

Worked cases, answers included:
CC(=O)Nc1ccc(-c2cc(CN3CCOCC3)c3ccccc3n2)cc1C#N = 0.133
CC(=O)Nc1ccc(-c2cc(CN3CCOCC3)c3ccc(Cl)cc3n2)cc1Cl = 2
CCCN(C)Cc1cc(-c2ccc(NC(C)=O)cc2)nc2ccccc12 = 0.0001
CC(=O)Nc1ccc(-c2cc(CN3CCOCC3)c3ccc(F)cc3n2)cc1C#N = 0.061

Request: Record request: IC50 value, item CC(=O)Nc1ccc(-c2cc(CN3CCOCC3)c3ccc(C#N)cc3n2)cc1Cl
Result: 0.014

Request: Param item = COc1ccc2c(CN3CCOCC3)cc(-c3ccc(NC(C)=O)c(Cl)c3)nc2c1 ; retrieve measured IC50.
Result: 1.5

Request: Give its IC50 value. Item: COc1ccc2c(CN3CCOCC3)cc(-c3ccc(NC(C)=O)c(C#N)c3)nc2c1
Result: 0.323

----------
Molecular target: binding of RAGE tail (ctRAGE) to DIAPH1 (Homo sapiens (Human), UniProt Q15109)
Sequence (Q15109 364-404): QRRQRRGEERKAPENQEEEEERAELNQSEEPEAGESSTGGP
Test: Primary screen (high-throughput): blocking of GFP RAGE tail binding to DIAPH1
Conditions: 12.5 μM; Table 2
valueType: inhibition at 12.5 µM (%)
The reply should be a number in %, with the unit left off.

Answered cases to consult:
CC(=O)Nc1ccc(-c2cc(CN3CCOCC3)c3ccccc3n2)nc1 = 20
CC(=O)Nc1ccc(-c2cc(C(=O)N3CCOCC3)c3cc(Cl)ccc3n2)nc1 = 35
CC(=O)Nc1ccc(-c2cc(CN3CCOCC3)c3ccccc3n2)cc1 = 44
CC(=O)Nc1ccc(-c2cc(C(=O)N3CCOCC3)c3cc(Cl)ccc3n2)cn1 = 32

Request: inhibition at 12.5 µM, test system binding of RAGE tail (ctRAGE) to DIAPH1 (Homo sapiens (Human), UniProt Q15109), entry CC(=O)Nc1ccc(-c2cc(C(=O)N3CCOCC3)c3cc(Cl)ccc3n2)cc1
Result: 37

Request: Find the measured inhibition at 12.5 µM: item CC(=O)Nc1ccc(-c2cc(C(C)N3CCOCC3)c3ccccc3n2)cc1 (stereo not drawn) , target or system binding of RAGE tail (ctRAGE) to DIAPH1 (Homo sapiens (Human), UniProt Q15109).
Result: 27
